test system: PC-3 prostate; test: NCI tumour cell line growth inhibition, 48 h
readout kind: GI50

Would you mind telling me what GI50 value was observed for COc1ccc(/C(COc2ccc3c(=O)cc(-c4ccccc4)oc3c2)=N\O)cc1 ? 12.7 µM

# GI50 lookup, item CC(C)(C)n1cc(-c2ccnc(NCCCNS(=O)(=O)c3ccc(C(F)(F)F)cc3)c2)c(-c2cccc(O)c2)n1 1.64 µM

Any idea what its GI50 is? The compound is COc1cc(CSc2nc3ccc(C)cc3c(=O)n2-c2ccccc2)cc(OC)c1OC 3.25 µM

Query: GI50; subject: CN[C@@H](C)C(=O)N[C@H](C(=O)N1CCC[C@H]1C(=O)Nc1snnc1-c1ccccc1)C1CCCCC1 48.6 µM

What measured GI50 goes with COc1cnc2c(c1)C(=O)c1c-2n(CCCn2ccnc2)c(=O)c2cc(F)ccc12 ? 0.0576 µM

Look up GI50: Nc1c(C(=O)c2cccc(-c3ccncc3)c2)cnn1-c1ccc(F)cc1F 4.83 µM

# lookup: GI50 of Fc1ccc2c(c1)C1=NN(c3ccccc3)C(F)C1CO2 (stereo not drawn) 11.1 µM

Request the reported GI50 associated with c1ccc2[nH]c(-c3ccc(-c4nccc5c4[nH]c4ccccc45)cc3)nc2c1 8.59 µM

Name the reported GI50 value associated with the compound CN(C)CCN1C(=O)c2ccccc2N(C)c2ccccc21 > 100 µM

# GI50 lookup, item O=C1Nc2ccccc2/C1=C/C(=O)c1coc2c1C(=O)c1ccccc1C2=O > 100 µM

Which value of GI50 has been reported for C=C1CCC2C3(C)COC(c4ccc(N(C)C)cc4)OC3CCC2(C)C1C/C=C1/C(=O)OCC1O (stereo not drawn) in the records? 2.32 µM

So what's the measured GI50 for this one? COC(=O)c1nc(-c2ccccc2)oc1S(=O)(=O)Cc1ccccc1 15 µM

Reported GI50 for C=C(C)C(=O)O[C@H]1CC(=C)[C@@H]2C[C@H](O)[C@](O)(CCl)[C@@H]2[C@H]2OC(=O)C(=C)[C@@H]21 : what is it? 3.03 µM

----------
tested on: DLD-1 colon; experiment: NCI tumour cell line growth inhibition, 48 h
readout kind: TGI

Any idea what TGI was measured for COc1cc(OC(=O)c2ccccc2)cc2c1C(=O)C=CC2=O ? 35.5 µM

So what's the measured TGI for this one? CC(=O)OC1COC(n2c(O)c(N=NC(N)=S)c3cc(Br)ccc32)C(OC(C)=O)C1OC(C)=O (stereo not given) > 100 µM

State the recorded TGI for this entry: CCOc1ccccc1N1C(=O)C(=O)C(c2nc3ccccc3o2)C(=O)C1=O > 100 µM

What TGI value was documented for this compound, C[C@]12CCC(=O)C=C1CC[C@@H]1[C@@H]2CC[C@]2(C)C(=O)NC(=O)C[C@@H]12 ? > 100 µM

Any idea what its TGI is? The compound is COc1cc2c(oc(=O)c3c4oc([Si](C)(C)C)cc4cc(OC)c23)c2cccc(OCc3ccccc3)c12 > 100 µM

// lookup TGI for COc1c(C)c2c(c(O)c1C/C=C(\C)CCC(=O)O)C(=O)OC2 > 100 µM

Endpoint output: TGI of OC(c1ccccc1)(c1ccccc1)c1ccncc1 . Value? > 100 µM

Param item = O=C(Nc1ccc(Cl)cc1)c1cc2cc(N=Nc3ccccc3Cl)ccc2oc1=O ; retrieve measured TGI. 32.2 µM

Name the reported TGI value associated with the compound Cc1ccc(S(=O)(=O)OC2CSS(=O)CC2OS(=O)(=O)c2ccc(C)cc2)cc1 (stereo not given) 23.6 µM

Dear colleague, I am looking for the recorded TGI of the following compound: CCCCOC(=O)C1C2CCC(O2)C1C(=O)OCCCC (stereo not given) > 87.5 µM

TGI lookup needed for CC(=O)CC(=O)OC1CC(C)CCC1C(C)C (stereo not given) , thanks. > 100 µM

Which value of TGI has been reported for C/C(CC(=O)Nc1ccc([N+](=O)[O-])cc1)=N\NC(N)=O in the records? > 100 µM

Data request, read-out TGI, for COc1ccc2c3c1O[C@]1(C)C34CCN(C)C(C2)C42C=C[C@@]1(OC)c1c(O)ccc(O)c12 > 100 µM

Item under review: Oc1ccccc1/C=C/c1csnn1 . Reported TGI? > 100 µM

Can you share its TGI? I mean this compound: Cn1cc2ccccc2c1-c1nc(F)nc(F)n1 > 100 µM
